TARGET_DESC: T1, rat calcitonin receptor (rat, UniProt P32214 25-516)
T1 construct: whole, on cells; Membranes of transiently transfected BHK tk'ts 13 cells; also called rCTR; rat calcitonin (a) receptor
T1 sequence (looked up): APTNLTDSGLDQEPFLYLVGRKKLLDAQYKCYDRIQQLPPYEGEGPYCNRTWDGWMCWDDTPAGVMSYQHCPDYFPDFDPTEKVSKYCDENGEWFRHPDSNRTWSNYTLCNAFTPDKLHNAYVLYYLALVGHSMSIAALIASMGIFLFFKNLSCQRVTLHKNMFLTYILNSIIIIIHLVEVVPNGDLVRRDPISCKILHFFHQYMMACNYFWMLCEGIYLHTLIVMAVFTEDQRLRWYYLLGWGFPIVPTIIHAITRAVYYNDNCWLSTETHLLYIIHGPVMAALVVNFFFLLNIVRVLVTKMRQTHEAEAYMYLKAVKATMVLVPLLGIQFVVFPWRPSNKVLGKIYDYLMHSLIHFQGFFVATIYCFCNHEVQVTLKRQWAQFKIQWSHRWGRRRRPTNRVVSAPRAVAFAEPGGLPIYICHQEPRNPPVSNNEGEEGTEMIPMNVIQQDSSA
EXPERIMENT_NOTES: ratio of IC50 on rat calcitonin receptor to IC50 on rat amylin receptor (reference m40)
Numbered stars: 1 amine (or outer) side, 2 acyl side, 3 side chain; on linkers, the order of the positions; unused ones are H or OH. Bridge positions count the residues as written; N and C are the ends. Side chains are listed from the residue outwards. Ends that are not written are not given here. * marks the point of attachment. C20 diacid = O=C(O)CCCCCCCCCCCCCCCCCCC(=O)*; γGlu = O=C(O)[C@H](CCC(=O)[*:2])N[*:1]
ATTRIBUTE_MEASURED: Ratio rCT/rAmylin binding

INSERT INTO assay_data (binder, measured_result) VALUES
  ('K([γGlu-γGlu-C20 diacid])CNTATCATQRLAEFLRHSSPNFGAIPSSTNVGPETY-NH2 (disulfide 2-7 (inferred), Synthetic acylated analogue of human amylin)', 88.5);

(I) K([γGlu-γGlu-C20 diacid])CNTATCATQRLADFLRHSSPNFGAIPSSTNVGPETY-NH2 (disulfide 2-7, Synthetic acylated analogue of human amylin)
(II) K([γGlu-γGlu-C20 diacid])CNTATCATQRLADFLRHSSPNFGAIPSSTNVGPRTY-NH2 (disulfide 2-7, Synthetic acylated analogue of human amylin; also called compound 130)
Compare I and II by numeric Ratio rCT/rAmylin binding and name the larger one. Refer to your chosen item by its label in the answer.
II
